SYSTEM: Intestinal-type alkaline phosphatase (Mus musculus, UniProt P24822)
Sequence (P24822 whole entry): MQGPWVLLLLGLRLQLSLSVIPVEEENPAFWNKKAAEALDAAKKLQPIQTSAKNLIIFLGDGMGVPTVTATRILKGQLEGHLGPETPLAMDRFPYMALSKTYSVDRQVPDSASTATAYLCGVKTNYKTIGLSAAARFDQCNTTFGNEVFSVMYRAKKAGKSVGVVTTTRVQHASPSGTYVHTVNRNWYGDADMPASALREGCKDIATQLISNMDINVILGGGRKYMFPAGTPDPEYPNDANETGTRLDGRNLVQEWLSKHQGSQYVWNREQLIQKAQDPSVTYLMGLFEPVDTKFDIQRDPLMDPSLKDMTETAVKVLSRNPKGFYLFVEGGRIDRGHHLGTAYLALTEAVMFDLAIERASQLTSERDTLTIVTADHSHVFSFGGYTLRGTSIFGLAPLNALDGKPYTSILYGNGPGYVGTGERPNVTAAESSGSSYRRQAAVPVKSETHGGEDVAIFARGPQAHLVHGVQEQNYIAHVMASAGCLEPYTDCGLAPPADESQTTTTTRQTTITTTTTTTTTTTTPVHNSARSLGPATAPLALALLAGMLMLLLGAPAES
ASSAY_NOTES: Inhibition of mouse duodenal-specific FLAG-tagged IAP expressed in African green monkey COS1 cells using p-nitrophenyl phosphate as substrate after 30 mins by chemiluminescence assay
QUANTITY_NAME: IC50 (µM)
Give just the numeric value; µM need not be written.

I have this compound here, "Cc1ccc(C)c(NC(=O)CNS(=O)(=O)c2ccc3[nH]c(=O)oc3c2)c1" , and I need its recorded IC50.
3.8
